# Tested on: RPMI-8226 leukemia
# protocol.text: NCI-60 one-dose screen, 48 h (100 = growth as untreated, 0 = no growth, -100 = all killed)
# details: 10 µM
# Description: Growth inhibition of the RPMI-8226 human tumor cell line is measured as a screen for anti-cancer activity. Cells are grown in 96 well plates and exposed to the test compound for 48 hours. Compounds are tested at a single concentration, which is 10^-5 M for most compounds. The reported endpoint is percent growth (GI% or GIPRCNT), where numbers from 0 - 100% represent growth inhibition, and numbers from -100% - 0 represent cell death. For example, a value of 40 represents 60% growth inhibition. […]
Compounds without any hit were thinned out: in the full panel of roughly 83,000, 20% have a hit. The source made the active and inactive calls. How the source made its calls: active means growth percent below 10; inactive means the rest.
measured.metric: growth

1) Cc1ccccc1-c1cc(-c2ccc(Br)s2)[nH]c(=O)c1C#N = 102% (inactive)
2) COc1cc(C2=NN(c3ccc(S(N)(=O)=O)cc3)C(c3ccc(Cl)cc3)C2)cc(OC)c1OC (configuration not stated) = -5.03% (active)
3) COc1cc(/C=C/C(=O)CC(=O)/C=C/c2cc(Br)c(OC)c(OC)c2)cc(Br)c1OC = 116% (inactive)

Sample COc1ccc(/C=C2\CN(Cc3cn(CCCNc4ccnc5cc(Cl)ccc45)nn3)C/C(=C\c3ccc(OC)cc3)C2=O)cc1 ; growth observed: 18% (inactive)

Record CN1CCc2c(c3ccccc3c3ccccc23)C1 . Reported growth: 50.8% (inactive)

growth for Brc1ccccc1Nc1ccc2nnc(-c3ccncc3)n2n1 is 91.1% (inactive)

Reported growth ( CN([N-]C(=O)CC(=O)[N-]N(C)C(=S)c1ccccc1)C(=S)c1ccccc1.[Cu+2] ) = -13.7% (active)

Entry COc1ccccc1/C=C/C(=O)/C=C/c1ccccc1O ; growth = -53.7% (active)

growth recorded for this molecule, O=C1N/C(=C\c2ccccc2)c2ncccc21 , is 106% (inactive)

Just so you know, measured growth for Cc1nc(NC(=O)COc2cccc(/C=C3\COc4ccccc4C3=O)c2)sc1C came out at -74.2% (active)

Reported growth ( COc1ccc(C(=O)C2=CC(=O)C(=O)C2)cc1OC ) = 98.7% (inactive)

====

# System: SW-620 colon
# protocol.text: NCI-60 one-dose screen, 48 h (100 = growth as untreated, 0 = no growth, -100 = all killed)
# details: 10 µM unless noted
Compounds without any hit were thinned out: in the full panel of roughly 83,000, 20% have a hit.
measured.metric: growth (%)
Give just the number in %; leave the unit off.

Below, each entry is followed by its recorded growth result.
1) Cc1c(NCC(=O)Nc2nc3ccccc3[nH]2)c(=O)n(-c2ccccc2)n1C = 103
2) CCOC(=O)C(CC(c1ccccc1)N1CCCCC1)[N+](=O)[O-] (stereo not drawn) = 84.9
3) CN1CCN(C(=O)OCCOCCOC(=O)N2CCN(C)CC2)CC1 = 117
4) CN1CCN(C)c2cncc(Br)c2C1=O = 102
5) CC1=CN2C(=NC3=C(CCCC/C3=C\c3ccccc3)C2c2ccccc2)S1 (stereo not drawn) = 103

Consider O=c1oc2ccccc2cc1-c1csc(N/N=C/c2cc3ccccc3nc2Cl)n1 . Its measured growth is 106

Value of measured growth for the entry CN(C)C(=S)SCN1C(=O)c2ccc([N+](=O)[O-])cc2S1(=O)=O : 90.1

growth for Cc1nc(NN)c([N+](=O)[O-])c(NN)n1 is 104

====

# System: A549/ATCC NSCLC
# protocol.text: NCI-60 one-dose screen, 48 h (100 = growth as untreated, 0 = no growth, -100 = all killed)
# details: 10 µM unless noted
This is part of a sample that, as a whole, favours compounds with a hit. Of some 83,000 tested, about 20% had one in any assay.
Quick rule for you: growth at 90% or higher means Criterion met, lower means Criterion not met.

Quick check, growth >= 90%? CC(C)NCC(O)COc1ccc(CCOCC2CC2)cc1 (stereo unspecified)
Criterion met

====

# Test system: UACC-62 melanoma
# protocol.text: NCI-60 one-dose screen, 48 h (100 = growth as untreated, 0 = no growth, -100 = all killed)
# details: 10 µM unless noted
The panel holds about 83,000 compounds, 20% with a hit somewhere; the sample as a whole holds those more often. Active and inactive are the calls of the source. Rule for the calls: active = growth percent below 10; inactive = the rest.
Items are presented alongside their recorded growth.

1. CCOC(=O)c1c(-c2cc(OC)c(OC)c(OC)c2)csc1N = 88.6% (inactive)
2. O=c1[nH]c(=S)c2c(n1CCCO)CCC2 = 97.2% (inactive)
3. CCOc1ccc(-c2cnnn2-c2nonc2-n2cccc2)cc1 = 35.6% (inactive)
4. COc1ccc(Sc2ccc3[nH]c(=O)nc(N)c3c2)cc1 = 105% (inactive)
5. CON=C1C[C@]2(C[C@@H]3C[C@@H](C/C=C(\C)C[C@@H](C)/C=C/C=C4\CO[C@@H]5[C@H](O)C(C)=C[C@@H](C(=O)O3)[C@]45O)O2)O[C@H](/C(C)=C/C(C)C)[C@H]1C = 70.6% (inactive)

For the next question, use this molecule.
growth reading for CSc1ccc(OC(C)=O)cc1C : 98.1% (inactive)

====

# System: SNB-75 CNS
# protocol.text: NCI-60 one-dose screen, 48 h (100 = growth as untreated, 0 = no growth, -100 = all killed)
# details: 10 µM unless noted
About 83,000 compounds went through this panel and 20% of them were active in at least one assay; those are over-represented in the sample as a whole.
Please use 1.0 whenever growth is not below 90%, and 0.0 whenever it is.

1) O=C1/C(=C/c2ccc(Cl)cc2)N=C(c2ccccc2)N1CCc1cccs1 = 0.0

In plain terms: is recorded growth at least 90% for COc1cccc(OC(=O)c2ccccc2)c1OC(=O)c1ccccc1 ?
0.0

Assess whether reported growth for Cc1nn(-c2ccccc2)c2nc3nc4c(c(N)c3c(-c3ccc(Cl)cc3)c12)CCCC4 sits at 90% or higher.
1.0

====

# Tested on: M14 melanoma
# protocol.text: NCI-60 one-dose screen, 48 h (100 = growth as untreated, 0 = no growth, -100 = all killed)
# details: 10 µM unless noted
# Experimental: Growth inhibition of the M14 human tumor cell line is measured as a screen for anti-cancer activity. Cells are grown in 96 well plates and exposed to the test compound for 48 hours. Compounds are tested at a single concentration, which is 10^-5 M for most compounds. The reported endpoint is percent growth (GI% or GIPRCNT), where numbers from 0 - 100% represent growth inhibition, and numbers from -100% - 0 represent cell death. For example, a value of 40 represents 60% growth inhibition. […]
About 83,000 compounds went through this panel and 20% of them were active in at least one assay; those are over-represented in the sample as a whole. The source made the active and inactive calls. Rule for the calls: active = growth percent below 10; inactive = the rest.
measured.metric: growth

1) CCCCC(=O)N/N=C/c1cc(I)cc(I)c1O = 56.4% (inactive)
2) CC1SC(c2ccc(Cl)cc2)N(CCc2cccs2)C1=O (centres undefined) = -12.8% (active)
3) c1ccc2cc(Cn3c(-c4ccc5ccccc5c4)[n+](Cc4ccc5ccccc5c4)c4ccccc43)ccc2c1 = -72.8% (active)

growth reading for Cc1nc2ccc(Cl)cc2n1C : 106% (inactive)

Lab note: measured growth of O=C1/C(=C/c2ccc([N+](=O)[O-])cc2)Oc2ccc(O)cc21 was 97.8% (inactive)

Reported growth of Clc1ccc(Nc2nc(Nc3ccccc3)nc(Nc3ccc(-c4cc(-c5ccc(Cl)cc5)on4)cc3)n2)cc1 : 41.4% (inactive)

====

# Test system: SNB-19 CNS
# protocol.text: NCI-60 one-dose screen, 48 h (100 = growth as untreated, 0 = no growth, -100 = all killed)
# details: 10 µM unless noted
Compounds without any hit were thinned out: in the full panel of roughly 83,000, 20% have a hit.
Listed below: growth values for each entry.
Record the value in %, omitting the unit from your answer.

Here are 5 molecules together with their reported answers.
1) Clc1ccc(Nc2nc(Nc3ccccc3)nc(Nc3ccc(-c4cc(-c5ccc(Cl)cc5)on4)cc3)n2)cc1 = 76.7
2) Cc1oc2c(c1C(=O)N1CC[C@@H](N)C1)C(=O)c1c(c(O)c3ccccc3c1O)C2=O = 40
3) CCN(CC)c1ccc2c(c1)OS(=O)(=O)N=C2 = 101
4) CN1CCc2c(Sc3ccc(C(=O)NO)cc3)c3ccccc3n2C1 = 53.4
5) C=CCCCCCCCCC(=O)[O-].C=CCCCCCCCCC(=O)[O-].[Zn+2] = 100

Field growth (entry O=C1Nc2ccc(Cl)cc2/C1=N/N=C(c1ccccc1)c1ccccc1 ) reads 62.7

// sample COc1ccc(NS(=O)(=O)c2ccc(-c3cnc(C4CC4)o3)cc2)cc1 , its growth was 67.8

====

# System: CCRF-CEM leukemia
# protocol.text: NCI-60 one-dose screen, 48 h (100 = growth as untreated, 0 = no growth, -100 = all killed)
# details: 10 µM unless noted
Compounds without any hit were thinned out: in the full panel of roughly 83,000, 20% have a hit.
measured.metric: growth (%)
Unit % implied. Number only.

Solved cases (8 shown):
1. COc1ccc(-c2c(-c3cc4c(c(OC)c3OC)OCO4)noc2N)cc1 = 11.7
2. CC1(C)N=C(N)N=C(N)N1c1cccc(/C=C/C=C/c2cccc([N+](=O)[O-])c2)c1 = 35
3. COC(=O)c1c2c(c(C)[n+]([O-])c1C)C(=O)C=C(NCc1ccc(F)c(Cl)c1)C2=O = -2.7
4. O=C1/C(=C/c2ccc(Cl)cc2)N=C(c2ccccc2)N1CCc1cccs1 = 85.9
5. O=c1[nH]c(=S)c2c(n1CCCO)CCC2 = 103
6. COC1(OC)C2(Cl)C=C(c3ccccc3)C1(Cl)C(Cl)=C2Cl (centres undefined) = 91
7. O=C1OCC2=C1C(c1ccc3c(c1)OCO3)CC(=O)N2c1cccc(Cl)c1 (centres undefined) = 90.9
8. O=c1nc(NO)[nH]c(=O)n1Cc1ccccc1 = 108

Record CCOC(=O)c1[nH]c2cc(Cl)ccc2c1[C@@H](C(=O)NC(C)(C)C)N(CC)C(=O)CCCCC#Cc1cccc2c1CN(C1CCC(=O)NC1=O)C2=O (some centres undefined) , field growth: 13.7

Briefly, growth measured for COc1ccc(/C=N/NC(=O)c2cnn(CC(O)Cc3ccccc3)c2N)cc1OC1CCCC1 (centres undefined) : 70.9

Lookup result for CCN1CCN(c2ccc(Nc3ncc4ccc5ncn(C(C)C)c5c4n3)nc2)CC1 ; measured growth: 4.85

growth in this record for CCC12CCC3c4ccc(O)cc4CCC3C1CC(O)C2O (centres undefined) : 85.4

Field growth (entry FCOC(C(F)(F)F)C(F)(F)F ) reads 101

Lab book: growth of CC(C)(C)[Si](C)(C)OC1[C@@H](COC(N)=O)O[C@@H](n2cnc3c(N)ncnc32)[C@H]1O[Si](C)(C)C(C)(C)C (some centres undefined) noted as 50.3
